# assay-system: Luciferin 4-monooxygenase (Photinus pyralis) (UniProt P08659)
# Sequence (P08659 whole entry, looked up): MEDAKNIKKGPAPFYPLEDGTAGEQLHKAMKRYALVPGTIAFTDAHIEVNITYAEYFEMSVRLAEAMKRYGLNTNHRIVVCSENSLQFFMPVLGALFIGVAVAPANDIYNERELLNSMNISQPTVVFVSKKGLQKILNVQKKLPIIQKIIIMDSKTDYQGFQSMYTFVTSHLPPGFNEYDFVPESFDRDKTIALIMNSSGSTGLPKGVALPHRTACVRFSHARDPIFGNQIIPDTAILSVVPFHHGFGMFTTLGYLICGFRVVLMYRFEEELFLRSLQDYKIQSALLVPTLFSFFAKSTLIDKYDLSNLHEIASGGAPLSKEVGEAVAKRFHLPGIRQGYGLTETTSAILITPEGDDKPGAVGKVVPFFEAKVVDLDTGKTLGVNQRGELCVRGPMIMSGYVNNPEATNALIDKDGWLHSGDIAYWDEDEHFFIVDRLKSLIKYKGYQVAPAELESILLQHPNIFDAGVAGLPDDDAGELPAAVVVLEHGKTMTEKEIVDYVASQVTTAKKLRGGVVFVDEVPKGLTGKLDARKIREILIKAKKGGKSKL
# measurement-description: qHTS profiling assay for firefly luciferase inhibitor/activator using purifed enzyme and Km concentrations of substrates (counterscreen for miR-21 project); note: nearly all actives have a fitted effect of over 55% in size
# setup-conditions: purified FLuc, luminescence inhibition; series mostly up to 57.5 µM
Hit rate of the full screen: of about 360,000 compounds, about 25,000 (6.9%) were called active. Roughly 9% stayed inconclusive and do not appear here. Calls come from the whole dose curve; as a rule, active = well fitted inhibition curve with a large enough effect; inconclusive = small, poorly fitted or top-dose-only effect; inactive = flat fitted curve, though single readings scatter. Shown is part of a subset that was picked to be rich in actives.
The reply should name one outcome from active, inactive

### Prompt What did the test return for "CCc1cccc(C)c1NS(=O)(=O)c1ccc(-c2cc(C)no2)s1" ?
### Response inactive

### Prompt What did the test return for "Cc1c(CCC(=O)O)c(=O)oc2c(C)c(OCc3ccccc3Cl)ccc12" ?
### Response inactive

### Prompt What did the test return for "O=C(CSc1oc(-c2ccccc2)nc1S(=O)(=O)c1ccc(Br)cc1)NC1CCCCC1" ?
### Response inactive

### Prompt What did the test return for "CCn1c2ccccc2c2cc(NC(=O)Nc3ccc([N+](=O)[O-])cc3C)ccc21" ?
### Response inactive

### Prompt What did the test return for CN(C)c1ccc(NC(=S)N(CCc2ccccc2)C2CC(=O)N(c3c(Cl)cccc3Cl)C2=O)cc1 (stereo unspecified) ?
### Response inactive

### Prompt What did the test return for "O=C(NC1CCCCCC1)C1CCN(C(=O)c2ccc(Cl)cc2)CC1" ?
### Response inactive

### Prompt What did the test return for "Cc1ccc(S(=O)(=O)NNC(=S)NC(C)(C)C)cc1" ?
### Response inactive

### Prompt What did the test return for "CCCCn1c(=O)c2oc3ccccc3c2n(CC(=O)Nc2ccccc2OC)c1=O" ?
### Response inactive

### Prompt What did the test return for "c1ccc(-c2cc(-c3nnc4sc(-c5ccccn5)nn34)[nH]n2)cc1" ?
### Response active

### Prompt What did the test return for "COc1ccc(NC(=O)CSc2nc3ccccc3c(=O)n2C)cc1" ?
### Response inactive

### Prompt What did the test return for "CCOC(=O)CCc1c(C)c2ccc(OCc3nn[nH]n3)c(C)c2oc1=O" ?
### Response active

### Prompt What did the test return for COc1ccccc1N1CCN(C(=O)C2Cc3ccccc3CN2C(=O)c2ccco2)CC1 (stereo unspecified) ?
### Response inactive

### Prompt What did the test return for "Cc1ccc(C(=O)CSc2nc3ccccc3c(=O)n2N)o1" ?
### Response active

### Prompt What did the test return for C/C(=N\O)C1(C)N(O)C(C)(C)C(c2ccc(Br)cc2)=[N+]1[O-] (stereo unspecified) ?
### Response inactive

### Prompt What did the test return for "O=C(OCC(=O)N1CCCCCC1)c1cnc(Cl)c(Cl)c1" ?
### Response inactive

### Prompt What did the test return for "COc1ccccc1Nc1cc(C(=O)NCCCN(C)C2CCCCC2)c2ccccc2n1" ?
### Response inactive

### Prompt What did the test return for "Cc1ccc(Cn2cc(CCC(=O)NCc3ccc(OC(C)C)cc3)c3ccccc32)cc1" ?
### Response inactive

### Prompt What did the test return for "CC(=O)Nc1ccc(NC(=O)CSc2nnc(C3CC3)n2-c2ccccc2)cc1" ?
### Response inactive

### Prompt What did the test return for "CCOc1cccc(-c2nn3c(-c4ccccn4)nnc3s2)c1" ?
### Response inactive

### Prompt What did the test return for COc1ccccc1OCCNC(=O)C(CCSC)NC(=O)COc1ccccc1 (stereo unspecified) ?
### Response inactive

### Prompt What did the test return for "CCc1cccc(NC(=O)CN(C)S(=O)(=O)c2ccc3[nH]c4c(c3c2)CCCC4)c1" ?
### Response inactive
